System: HepG2 cells
method notes: HepG2 cytotoxicity (CellTiter-Glo, 72 h)
Format: cell-based, human
protocol conditions: human, 72 h
Marks after values point to notes of the source that are not given here.
For each of the molecules below, state its HepG2 cytotoxicity TC50 Glucose.

Which measured HepG2 cytotoxicity TC50 Glucose belongs to Clc1ccc(C2C=C(c3ccc(Br)cc3)Nc3ncnn32)cc1 (stereo not drawn) [TPN-0095026] , tested on HepG2 cells?
19 ± 3.5 ^b µM

Can you check O=c1c(/C=N/Cc2cccnc2)c(NCc2cccnc2)nc2ccccn12 [TPN-0095033] next?
>100 ^c µM

Can you check Cn1nc(C2CC2)cc1C(=O)Nc1ccc(I)cc1 [TPN-0089788] next?
52 ± 18 ^e µM

====

Tested on: HepG2 cells
method notes: HepG2 cytotoxicity (CellTiter-Glo, 72 h)
Assay type: cell-based, human
protocol conditions: human, 72 h
Marks after values point to notes of the source that are not given here.
For each of the compounds below, state its HepG2 cytotoxicity TC50 Glucose.

Need HepG2 cytotoxicity TC50 Glucose of O=C(COc1ccccc1)NC12CC3CC(CC(C3)C1)C2 [TPN-0006211] , thanks.
53 ± 1.5 ^b µM

Can you check O=C(c1c(F)cccc1F)N1CCN(c2cc(N3CCCCCC3)c(F)cc2[N+](=O)[O-])CC1 [TPN-0095035] next?
27 ± 0 ^b µM

Can you check COc1ccc(C2Oc3ccc(Cl)cc3C3=C2C(c2ccc(OC)cc2)n2ncnc2N3)cc1 (stereo not shown) [TPN-0095029] next?
>50 ^b µM

Can you check Cc1ccc(SCC(=O)Nc2ccc(Br)c(C)c2)cc1 [TPN-0006207] next?
>100 ^b µM

Can you check Cc1ccc(Nc2nc(C(N)=O)c(N)s2)cc1 [TPN-0095028] next?
54 ± 9.4 ^c µM

Can you check COc1c(Cl)ccc(Cl)c1C(=O)Nc1sc2c(c1C(N)=O)CCCC2 [TPN-0073571] next?
>100 ^b µM

Can you check Cc1ccc(NC(=O)CCN2CCN(c3ccc(Cl)cc3)CC2)cc1 [TPN-0095037] next?
84 ± 2.5 ^b µM
